biological target: TRKA (Homo sapiens (Human)); experiment: Isolated TRK enzyme assay (HTRF KinEASE-TK), TRKA; assay type: biochemical; settings: read-out: Trka enzyme (IC50)
Sequence (P04629 441-796): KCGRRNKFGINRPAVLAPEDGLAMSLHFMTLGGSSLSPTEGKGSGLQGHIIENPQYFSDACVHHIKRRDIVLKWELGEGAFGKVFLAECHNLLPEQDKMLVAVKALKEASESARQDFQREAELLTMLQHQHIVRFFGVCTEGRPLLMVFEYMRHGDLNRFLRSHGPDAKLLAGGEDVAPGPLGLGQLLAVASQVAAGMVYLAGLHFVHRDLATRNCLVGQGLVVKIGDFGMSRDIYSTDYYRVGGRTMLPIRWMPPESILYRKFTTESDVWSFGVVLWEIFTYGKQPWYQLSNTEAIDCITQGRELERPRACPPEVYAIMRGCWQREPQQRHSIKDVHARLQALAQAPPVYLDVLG
outcome_measure: IC50 (µM)
Give a bare numeral; the unit µM is implied.

Here is how some compounds turned out for IC50.
structure_notation: CC(C)n1cc(C(=O)c2cncc(NC(=O)c3cncnc3N)c2)c2cncnc21
unit_spec: µM
IC50: 9.8
//
structure_notation: CC(C)(CO)n1cc(C(=O)c2cncc(NC(=O)Cc3cccc(C(F)(F)F)c3)c2)c2cncnc21
unit_spec: µM
IC50: 0.00361
//
structure_notation: CCc1cc(C(=O)Nc2cncc(C(=O)c3cn(C(C)C)c4ncncc34)c2)on1
unit_spec: µM
IC50: 0.654
//
structure_notation: CC(C)n1cc(C(=O)c2cncc(NC(=O)COc3ccccc3C#N)c2)c2cncnc21
unit_spec: µM
IC50: 0.155
//
structure_notation: CSc1ncc(CC(=O)Nc2cncc(C(=O)c3cn(C(C)C)c4ncncc34)c2)cn1
unit_spec: µM
IC50: 0.133

Problem: Give IC50 only, for "Cc1nn(C)cc1C(=O)Nc1cncc(C(=O)c2cn(C(C)C)c3ncncc23)c1" , using TRKA (Homo sapiens (Human)) data.
Result: 7.12

Problem: Give IC50 for "Cc1cc(C(=O)Nc2cncc(C(=O)c3cn(C(C)C)c4ncncc34)c2)nc(C)n1" tested on TRKA (Homo sapiens (Human)).
Result: 2.16

Problem: Given "Cc1sc2nc(CC(=O)Nc3cncc(C(=O)c4cn(C(C)C)c5ncncc45)c3)cn2c1C" , report its IC50 on TRKA (Homo sapiens (Human)).
Result: 1.91

----------
Recorded Papp B→A by entry
target: UniProt:P08183; assay: MDCK-MDR1 assay (in vitro brain penetration); format: in vitro ADME; details: human, MDCK-MDR1, MDCK-MDR1, B to A; read-out: MDCK MDR1 Papp BA
Sequence (P08183 whole entry): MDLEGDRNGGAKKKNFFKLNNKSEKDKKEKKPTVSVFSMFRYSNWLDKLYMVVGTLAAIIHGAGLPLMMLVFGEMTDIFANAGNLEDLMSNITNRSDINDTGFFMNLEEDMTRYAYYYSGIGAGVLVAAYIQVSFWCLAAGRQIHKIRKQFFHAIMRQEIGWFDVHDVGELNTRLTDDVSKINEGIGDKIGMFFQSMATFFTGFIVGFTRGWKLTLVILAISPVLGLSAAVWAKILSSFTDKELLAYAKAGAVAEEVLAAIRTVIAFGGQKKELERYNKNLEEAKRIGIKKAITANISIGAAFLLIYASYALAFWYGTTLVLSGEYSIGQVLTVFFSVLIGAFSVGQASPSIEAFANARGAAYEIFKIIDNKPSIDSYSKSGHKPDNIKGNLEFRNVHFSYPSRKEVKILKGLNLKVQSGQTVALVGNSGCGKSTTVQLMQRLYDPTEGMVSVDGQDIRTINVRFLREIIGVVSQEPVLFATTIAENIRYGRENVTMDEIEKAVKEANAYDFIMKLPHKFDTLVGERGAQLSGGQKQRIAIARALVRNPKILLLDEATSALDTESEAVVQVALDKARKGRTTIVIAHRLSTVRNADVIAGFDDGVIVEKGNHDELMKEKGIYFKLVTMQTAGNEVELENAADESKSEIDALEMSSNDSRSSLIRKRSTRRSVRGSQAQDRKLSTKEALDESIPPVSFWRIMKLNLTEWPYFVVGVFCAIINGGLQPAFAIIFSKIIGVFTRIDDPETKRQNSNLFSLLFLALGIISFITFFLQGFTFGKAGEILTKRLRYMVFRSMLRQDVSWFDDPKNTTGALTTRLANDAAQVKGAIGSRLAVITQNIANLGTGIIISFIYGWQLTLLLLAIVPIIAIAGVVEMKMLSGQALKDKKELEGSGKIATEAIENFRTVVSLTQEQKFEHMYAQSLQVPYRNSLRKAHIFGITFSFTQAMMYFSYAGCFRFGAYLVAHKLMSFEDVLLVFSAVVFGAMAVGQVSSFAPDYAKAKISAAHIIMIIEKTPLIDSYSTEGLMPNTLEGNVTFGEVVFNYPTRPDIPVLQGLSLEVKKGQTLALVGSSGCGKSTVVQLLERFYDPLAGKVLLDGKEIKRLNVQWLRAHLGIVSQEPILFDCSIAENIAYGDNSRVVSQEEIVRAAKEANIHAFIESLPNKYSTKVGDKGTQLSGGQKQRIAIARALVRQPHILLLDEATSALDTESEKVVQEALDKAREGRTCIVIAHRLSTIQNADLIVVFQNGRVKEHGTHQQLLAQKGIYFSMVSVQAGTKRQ
Express the result in ×10⁻⁶ cm/s but write the number alone.

Some solved entries appear below for comparison.
compound: CC(CO)n1cc(C(=O)c2cncc(NC(=O)Cc3ccc(F)cn3)c2)c2cnc(N)nc21 (single isomer, unassigned)
tested_on: UniProt:P08183
Papp B→A (×10⁻⁶ cm/s): 2.4

compound: CC(C)(CO)n1cc(C(=O)c2cncc(NC(=O)Cn3cc(C4CC4)cn3)c2)c2cncnc21
tested_on: UniProt:P08183
Papp B→A (×10⁻⁶ cm/s): 24

Problem: Please supply the value of reported Papp B→A for the item "CC(C)(CO)n1cc(C(=O)c2cncc(NC(=O)Cc3ccc(Cl)cn3)c2)c2cnc(N)nc21"
Result: 18

----------
target: TRKA (Homo sapiens (Human)); assay: Cell based DiscoveRx PathHunter antagonist assay, TRKA cell line; settings: read-out: TrkA cell potency
Sequence (P04629 33-796): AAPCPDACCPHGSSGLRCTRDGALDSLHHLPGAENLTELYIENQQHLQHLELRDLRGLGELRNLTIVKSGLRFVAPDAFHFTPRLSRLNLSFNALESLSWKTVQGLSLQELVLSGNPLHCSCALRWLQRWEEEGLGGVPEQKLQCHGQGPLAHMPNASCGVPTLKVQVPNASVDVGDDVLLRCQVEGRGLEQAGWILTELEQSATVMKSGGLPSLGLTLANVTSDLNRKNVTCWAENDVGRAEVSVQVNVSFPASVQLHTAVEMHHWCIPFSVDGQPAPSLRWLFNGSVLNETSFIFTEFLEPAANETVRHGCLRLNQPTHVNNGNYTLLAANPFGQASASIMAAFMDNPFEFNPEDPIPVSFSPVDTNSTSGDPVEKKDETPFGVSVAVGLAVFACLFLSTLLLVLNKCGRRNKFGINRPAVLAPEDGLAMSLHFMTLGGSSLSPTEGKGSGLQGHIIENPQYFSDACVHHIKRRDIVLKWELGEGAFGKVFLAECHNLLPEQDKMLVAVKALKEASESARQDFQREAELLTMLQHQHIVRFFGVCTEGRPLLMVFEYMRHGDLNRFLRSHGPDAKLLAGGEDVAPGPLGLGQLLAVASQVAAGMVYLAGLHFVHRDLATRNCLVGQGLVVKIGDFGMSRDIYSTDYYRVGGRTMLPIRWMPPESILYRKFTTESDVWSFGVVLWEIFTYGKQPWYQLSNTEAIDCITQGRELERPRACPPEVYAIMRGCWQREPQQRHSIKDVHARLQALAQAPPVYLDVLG
pIC50: −log10 of the molar value.
Decide by pIC50: equal to or exceeding 8 means fulfilled, less means not fulfilled.

Past entries and their recorded results:
compound: CC(C)(CO)n1cc(C(=O)c2cncc(NC(=O)Cn3cc(C4CC4)nn3)c2)c2cnc(N)nc21
group: not fulfilled
--
compound: CC(C)(CO)n1cc(C(=O)c2cncc(NC(=O)Cn3ccc(C(F)(F)F)n3)c2)c2cnc(N)nc21
group: not fulfilled
--
compound: CC(C)(CO)n1cc(C(=O)c2cncc(NC(=O)Cc3ccc(Cl)cn3)c2)c2cncnc21
group: fulfilled

Now look at this one.
Problem: Quick check: does "CC(C)(C)n1cc(C(=O)c2cncc(NC(=O)Cn3cc(C4CC4)cn3)c2)c2cncnc21" have pIC50 greater than or equal to 8?
Result: fulfilled

The origin of these recorded values is patent US8846698B2.
